target: UniProtKB P05364; assay: biochemical; parameters: species or system Enterobacter cloaca; settings: enzyme 2.1 nM; 10 minutes preincubation at 25° C.; nitrocefin 50 μg/ml; pH 7.0; read-out: IC50 (nM) Class C AmpC
Sequence (P05364 21-381): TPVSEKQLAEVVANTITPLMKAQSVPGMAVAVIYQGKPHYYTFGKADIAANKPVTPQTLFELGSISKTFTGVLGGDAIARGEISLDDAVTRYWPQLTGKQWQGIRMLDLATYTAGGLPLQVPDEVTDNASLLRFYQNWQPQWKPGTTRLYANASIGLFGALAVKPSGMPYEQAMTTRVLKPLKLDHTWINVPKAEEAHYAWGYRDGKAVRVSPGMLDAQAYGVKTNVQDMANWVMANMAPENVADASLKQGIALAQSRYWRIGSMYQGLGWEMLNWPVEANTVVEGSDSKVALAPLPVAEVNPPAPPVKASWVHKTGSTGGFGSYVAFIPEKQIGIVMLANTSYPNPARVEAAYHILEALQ
Structures can show the parent of a compound that is named as a salt.
measurement name: IC50

O=C(O)C1=CSC2C(=Cc3cc4c(s3)CCSC4)C(=O)N12 (stereo not shown)    4.2 nM
O=C(O)C1=CS[C@@H]2/C(=C\c3cc4c(s3)CCN(Cc3cccnc3)C4)C(=O)N12    18 nM
O=C(O)C1=CSC2C(=Cc3cc4c(s3)CCOC4)C(=O)N12 (stereo not shown)    3.8 nM

Okay, here is my list. What is IC50 for each of these?
1. O=C(O)C1=CS[C@@H]2/C(=C\c3cc4n(n3)CCOC4)C(=O)N12
2. CN1CCn2cc(/C=C3/C(=O)N4C(C(=O)O)=CS[C@H]34)nc2C1 [Example 2, sodium salt]
3. O=C(O)C1=CS[C@@H]2/C(=C\c3cn4c(n3)CN(Cc3ccccc3)CC4)C(=O)N12 [Example 20, sodium salt]
4. O=C(O)C1=CSC2C(=Cc3cn4c(n3)CCCCC4)C(=O)N12 (stereo not shown)
5. O=C([O-])C1=CS[C@@H]2/C(=C\c3cc4n(n3)CCCO4)C(=O)N12.[Na+] [Example 36, sodium salt]
6. O=C(O)C1=CS[C@@H]2/C(=C\c3cc4c(s3)CCN(C(=O)c3cccnc3)C4)C(=O)N12
7. O=C(O)C1=CS[C@@H]2/C(=C\c3cn4c(n3)COCC4)C(=O)N12 [Example 7, sodium salt]

1. 6.1 nM
2. 5.8 nM
3. 3.1 nM
4. 4.6 nM
5. 4.5 nM
6. 11 nM
7. 4.8 nM

Would you be so kind as to report IC50 for each listed record?
1. O=C(O)C1=CS[C@@H]2/C(=C\c3cc4n(n3)CCC4)C(=O)N12 [Example 8, sodium salt]
2. O=C(O)C1=CS[C@@H]2/C(=C\c3cn4c(n3)CNCC4)C(=O)N12 [Example 3, sodium salt]

1.5 nM
6.2 nM
